Data origin: patent CN110981959A

Documented pKd across a set of binders
study_system: Human CD47/Biotinylated (human, UniProt Q08722 19-139, limits assumed, biotinylated (site not stated))
Sequence (Q08722 19-139 limits assumed): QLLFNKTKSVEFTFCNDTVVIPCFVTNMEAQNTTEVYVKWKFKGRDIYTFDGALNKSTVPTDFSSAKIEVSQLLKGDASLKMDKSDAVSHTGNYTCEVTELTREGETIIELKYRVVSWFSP
protocol_description: BLI-type kinetics, biotinylated human CD47 captured on SA probes, antibody at 73.5-588.2 nM
pKd: −log10 of the molar value.

Below: 4 binders and their reported pKd.
- CD47单域抗体 SEQ ID NO: 5 (VHH, His-tagged sdAb from pSJF2 in E. coli (Ni purification, anti-His detection); also called CD47纳米抗体) VHH: GVQLVESGGGLVQPGESLRLSCVASGFAFSSALMRWYRQAPGKERELVASVTTTGGITGYADSVKGRFTISRDNAENTLYLRMNSLKPEDTAVYYCRAYGFGLDSWGQGTQVTVSS: > 9.00
- CD47单域抗体 SEQ ID NO: 1 (VHH, Expressed from pSJF2 in E. coli, purified on Ni column and detected with anti-His antibody, so it carried a His tag; also called CD47纳米抗体) VHH: DVKLVESGGGLVQPGGSLRLSCAASGFTVSSYSMRWYRQVPGKERELIARITSTGQPIEYGESVKGRFTISRDNAKNTLYLEMNALKPEDTAVYYCWGAGYWGQGTQVTVSS: > 9.00
- CD47单域抗体 SEQ ID NO: 3 (VHH, His-tagged sdAb from pSJF2 in E. coli (Ni purification, anti-His detection); also called CD47纳米抗体) VHH: HVQLEESGGGLVQPGGSLRLSCKASGLTFASYSMRWYRQAPGQERELVARLSSSGVPIEYVDSVKGRFTASRDDAKSTLYLQMNSLKPEDTAMYYCWIANYWGQGTQVTVSS: > 9.00
- CD47单域抗体 SEQ ID NO: 10 (VHH, His-tagged sdAb from pSJF2 in E. coli (Ni purification, anti-His detection); also called CD47纳米抗体) VHH: GVKLVESGGGLVQPGGSLTLSCVASGFDFNSAHMRWYRQGPGKEREMVASISTTGGVTIYEDSVKGRFTISRDNADNTAYLRMNSLKPEDTAVYYCRAYGFGIDYWGQGTQVTVSS: > 9.00

# query: pKd of entry CD47单域抗体 SEQ ID NO: 9 (VHH, His-tagged sdAb from pSJF2 in E. coli (Ni purification, anti-His detection); also called CD47纳米抗体) VHH: AVKLVESGGGLVQPGGSLRLSCAASGFTVSNNNLRWYRQAPGKERELVAMITSAGNTNYADAVKGRSTISRDNAKNTLYLEMYRLKPEDTAVYYCWGAAHWGRGTQVTVSS
> 9.00

# query: pKd of entry CD47单域抗体 SEQ ID NO: 8 (VHH, His-tagged sdAb from pSJF2 in E. coli (Ni purification, anti-His detection); also called CD47纳米抗体) VHH: DVQLEESGGGLVQPGGSLRLSCAASGFTVSSYSMRWYRQAPGKERELVARITSTGEPIEYVESVKGRFTISRDNALNTLNLEMNDLKPEDTAVYYCWGAGYWGQGTQVTVSS
> 9.00

# query: pKd of entry CD47单域抗体 SEQ ID NO: 6 (VHH, His-tagged sdAb from pSJF2 in E. coli (Ni purification, anti-His detection); also called CD47纳米抗体) VHH: QVKLEESGGGLVQPGGSLRLSCAASGLTFSSYSMRWYRQAPGQERELVARLTSSGEPIEYADSVKGRFTASRDNAKSTVYLQMNSLKPEDTAMYYCWIANYWGQGTQVTVSS
> 9.00

# query: pKd of entry CD47单域抗体 SEQ ID NO: 7 (VHH, His-tagged sdAb from pSJF2 in E. coli (Ni purification, anti-His detection); also called CD47纳米抗体) VHH: QVKLEESGGGLVQPGESLRLSCVASGFTFSDAHMRWYRQAPGKEREMVASISTTGSITIYADSVKGRFTISRDNDEKTVYLRMNSLKPEDTAAYYCRAYGFQIDSWGQGTQVTVSS
> 9.00
